- Measurement description: in vitro
- Condition info: human, uninfected MT-4 cells, CC50 (nM), same protocol as Test A, CellTiter-Glo
Recorded CC50 at 5 days for the following compounds
Respond with the bare value in nM.

Worked examples, 3 compounds total:
>  <Compound>
Cc1cccc2[nH]cc(CC(=O)N[C@@H](Cc3cc(F)cc(F)c3)c3ncccc3-c3ccc(Cl)cc3)c12 [Example 534]

>  <Assay value>
9820

$$$$
>  <Compound>
COc1ccc(-c2cccnc2C(Cc2cc(F)cc(F)c2)NC(=O)Cc2c[nH]c3ccc(O)cc23)c(C)c1 (stereo not drawn) [Example 5]

>  <Assay value>
32700

$$$$
>  <Compound>
Cc1[nH]c2ccc(F)cc2c1CC(=O)N[C@@H](Cc1cc(F)cc(F)c1)c1ncccc1-c1ccc(Cl)cc1 [Example 597]

>  <Assay value>
8650

$$$$

The recorded CC50 at 5 days for entry Cc1ccccc1-c1cccnc1[C@H](Cc1cc(F)cc(F)c1)NC(=O)Cc1c[nH]c2ccc(F)cc12 [Example 109] equals 9080

The recorded CC50 at 5 days for entry O=C(Cn1nc(C(F)(F)F)c2c1C1CC1CC2)N[C@@H](Cc1cc(F)cc(F)c1)c1ncccc1-c1cnc2[nH]ccc2c1 (stereo partly drawn) [Example 379] equals 9240

The recorded CC50 at 5 days for entry Cc1cc(=O)n(CC(=O)N[C@@H](Cc2cc(F)cc(F)c2)c2ncccc2-c2cccc(S(N)(=O)=O)c2)c2ccccc12 [Example 345] equals 12400

The recorded CC50 at 5 days for entry Cc1cccc2[nH]cc(CC(=O)N[C@@H](Cc3cc(F)cc(F)c3)c3ncccc3-c3cccc(C(N)=O)c3)c12 [Example 481] equals 22900

The recorded CC50 at 5 days for entry CC(C)(C)C#Cc1cn(CC(=O)N[C@@H](Cc2cc(F)cc(F)c2)c2ncccc2-c2ccc(F)c(C(N)=O)c2)nc1C(F)(F)F [Example 357] equals 8820

The recorded CC50 at 5 days for entry O=C(Cn1nc(C(F)F)c2c1C(F)(F)C1CC21)N[C@@H](Cc1cc(F)cc(F)c1)c1ncncc1-c1cccc2cnccc12 (stereo partly drawn) [Example 185C] equals 26500

The recorded CC50 at 5 days for entry NC(=O)c1cc(-c2cccnc2[C@H](Cc2cc(F)cc(F)c2)NC(=O)Cn2nc(C(F)(F)F)c3c2CCC=C3)ccc1F [Example 339B] equals 19400

The recorded CC50 at 5 days for entry CC(C)(C)OC(=O)NCc1ccc2[nH]cc(CC(=O)N[C@@H](Cc3cc(F)cc(F)c3)c3ncccc3-c3ccc(Cl)cc3)c2c1 [Example 557] equals 7860

The recorded CC50 at 5 days for entry O=C(Cc1c[nH]c2ccc(F)cc12)N[C@@H](Cc1cc(F)cc(F)c1)c1ncccc1-c1ccccc1-c1ccccc1 [Example 398] equals 9830

The recorded CC50 at 5 days for entry COc1ccc2cccc(CC(=O)N[C@@H](Cc3cc(F)cc(F)c3)c3ncccc3-c3ccc(F)c(C#N)c3)c2c1 [Example 373] equals 8140

The recorded CC50 at 5 days for entry Nc1ncc(-c2cccnc2[C@H](Cc2cc(F)cc(F)c2)NC(=O)Cn2nc(C(F)F)c3c2C(F)(F)CCC3(F)F)cc1C(F)(F)F [Example 371] equals 7590

The recorded CC50 at 5 days for entry NC(=O)c1cc(-c2cccnc2[C@H](Cc2cc(F)cc(F)c2)NC(=O)Cn2nc(C(F)(F)F)cc2C(F)(F)F)ccc1F [Example 542] equals 33600

The recorded CC50 at 5 days for entry O=C(Cn1nc(C(F)F)c2c1C1CC1CC2)NC(Cc1cc(F)cc(F)c1)c1ncncc1-c1cnc2[nH]ccc2c1 (stereo not drawn) [Example 299D] equals 19500

The recorded CC50 at 5 days for entry Cc1ccccc1-c1cccnc1[C@H](Cc1cccc(F)c1)NC(=O)Cn1nc(C(F)(F)F)c2c1CCCC2 [Example 25] equals 11900

The recorded CC50 at 5 days for entry O=C(Cn1nc(C(F)F)c2c1C(F)(F)CCC2(F)F)N[C@@H](Cc1cc(F)cc(F)c1)c1ncccc1-c1ccc2ccc(=O)[nH]c2c1 [Example 490D] equals 38000

The recorded CC50 at 5 days for entry CC(C)(C)OC(=O)NCc1ccc2c(CC(=O)N[C@@H](Cc3cc(F)cc(F)c3)c3ncccc3-c3ccc(Cl)cc3)c[nH]c2c1 [Example 526] equals 10000
